Exercise: state measured pIC50 for each of the compounds provided.
- Tested on: CEM cells HIV-1 protection, formazan growth assay
- procedure.text: NCI AIDS Antiviral Assay
- condition.description: measured here: growth of uninfected CEM cells
One number for each entry, as −log10 of the molar value.

compound: CCOC(=O)C1C/C2=C(/CCCCCCCCCC2)SCCCS1 (stereo unspecified)
measured.on: CEM cells HIV-1 protection, formazan growth assay
pIC50: 4.57
--
compound: COc1ccc(/C=C/C(=O)C(C)(C)CN2CCCCC2)cc1
measured.on: CEM cells HIV-1 protection, formazan growth assay
pIC50: 4.98
--
compound: CCOC(=O)C1Sc2c(c(=O)n(C)c3ccccc23)C1=O (stereo unspecified)
measured.on: CEM cells HIV-1 protection, formazan growth assay
pIC50: 4.92
--
compound: CC(/C=C/NNC1=NC(c2ccccc2)C(c2ccccc2)=NN1)Sc1ccccc1N (stereo unspecified)
measured.on: CEM cells HIV-1 protection, formazan growth assay
pIC50: 5.84
--
compound: COc1ccc2nc3cc([N+](=O)[O-])ccc3c(NNc3ccc([N+](=O)[O-])cc3)c2c1
measured.on: CEM cells HIV-1 protection, formazan growth assay
pIC50: 4.30

Below: the item to evaluate.
Give its pIC50 value. Item: CN(C)c1ccc(/C=C(\NC(=O)c2ccccc2)C(=O)NC(CCC(=O)O)C(=O)O)cc1 (stereo unspecified)
4.46
